Recorded Kcat, one value per entry.
target: Xanthine dehydrogenase/oxidase (Bos taurus, UniProt P80457); experiment: Activity at bovine xanthine oxidase at 50 uM; conditions: cattle
Sequence (P80457 whole entry): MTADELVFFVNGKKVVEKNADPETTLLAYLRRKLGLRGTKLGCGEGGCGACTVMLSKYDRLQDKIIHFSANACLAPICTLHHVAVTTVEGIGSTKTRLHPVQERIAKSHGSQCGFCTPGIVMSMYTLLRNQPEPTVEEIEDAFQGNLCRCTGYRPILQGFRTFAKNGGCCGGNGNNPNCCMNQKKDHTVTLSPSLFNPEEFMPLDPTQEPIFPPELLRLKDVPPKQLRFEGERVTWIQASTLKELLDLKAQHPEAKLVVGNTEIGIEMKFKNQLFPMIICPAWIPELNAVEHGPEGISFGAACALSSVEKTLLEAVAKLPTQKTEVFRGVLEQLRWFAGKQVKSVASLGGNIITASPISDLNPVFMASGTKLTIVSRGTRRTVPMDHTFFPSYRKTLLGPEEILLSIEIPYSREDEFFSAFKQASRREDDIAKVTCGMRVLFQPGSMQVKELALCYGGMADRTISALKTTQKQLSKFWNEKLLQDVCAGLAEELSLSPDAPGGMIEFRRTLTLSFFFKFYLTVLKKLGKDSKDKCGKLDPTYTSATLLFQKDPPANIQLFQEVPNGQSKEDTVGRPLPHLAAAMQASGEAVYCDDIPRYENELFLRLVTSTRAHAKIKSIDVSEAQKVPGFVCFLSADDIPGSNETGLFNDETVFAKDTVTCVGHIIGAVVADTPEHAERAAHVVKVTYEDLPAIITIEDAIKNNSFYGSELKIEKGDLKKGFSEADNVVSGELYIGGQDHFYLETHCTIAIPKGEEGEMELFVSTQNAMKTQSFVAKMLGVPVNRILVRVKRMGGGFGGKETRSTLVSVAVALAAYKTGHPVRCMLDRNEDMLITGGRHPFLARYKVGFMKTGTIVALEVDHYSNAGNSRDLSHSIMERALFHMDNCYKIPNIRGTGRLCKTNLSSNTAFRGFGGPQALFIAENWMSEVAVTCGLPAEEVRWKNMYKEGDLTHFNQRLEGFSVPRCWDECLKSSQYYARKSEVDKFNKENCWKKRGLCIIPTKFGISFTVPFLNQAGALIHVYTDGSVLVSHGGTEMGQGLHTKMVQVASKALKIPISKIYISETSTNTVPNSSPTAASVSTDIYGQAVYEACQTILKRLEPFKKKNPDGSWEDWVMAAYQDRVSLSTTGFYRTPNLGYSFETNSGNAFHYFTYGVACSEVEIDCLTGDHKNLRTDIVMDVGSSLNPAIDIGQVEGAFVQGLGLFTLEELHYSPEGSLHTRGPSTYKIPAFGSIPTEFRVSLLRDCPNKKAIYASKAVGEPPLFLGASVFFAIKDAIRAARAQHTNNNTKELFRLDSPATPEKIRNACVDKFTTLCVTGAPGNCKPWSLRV

{"compound": "COc1cc(C2Oc3cc([C@H]4Oc5cc(O)cc(O)c5C(=O)[C@@H]4O)ccc3OC2CO)ccc1O (stereo not given in full)", "Kcat [s⁻¹]": 4}
{"compound": "COc1cc(/C=C/C(=O)CC(=O)/C=C/c2ccc(O)c(OC)c2)ccc1O", "Kcat [s⁻¹]": 5}
{"compound": "Oc1ncnc2[nH]ncc12", "Kcat [s⁻¹]": 4.3}
{"compound": "O=c1c(O)c(-c2ccc(O)c(O)c2)oc2cc(O)cc(O)c12", "Kcat [s⁻¹]": 12.4}
{"compound": "O=c1cc(-c2ccc(O)c(O)c2)oc2cc(O)cc(O)c12", "Kcat [s⁻¹]": 12.2}

* * *

target: Xanthine dehydrogenase/oxidase (Bos taurus, UniProt P80457); assay: Activity at bovine xanthine oxidase at 25 uM preincubated for 10 mins; details: cattle

{"compound": "O=c1cc(-c2ccc(O)c(O)c2)oc2cc(O)cc(O)c12", "unit_tag": "s⁻¹", "Kcat": 3.8}
{"compound": "Oc1ncnc2[nH]ncc12", "unit_tag": "s⁻¹", "Kcat": 1.3}
{"compound": "O=c1c(O)c(-c2ccc(O)c(O)c2)oc2cc(O)cc(O)c12", "unit_tag": "s⁻¹", "Kcat": 8.1}
{"compound": "COc1cc(/C=C/C(=O)CC(=O)/C=C/c2ccc(O)c(OC)c2)ccc1O", "unit_tag": "s⁻¹", "Kcat": 6.5}
{"compound": "COc1cc(C2Oc3cc([C@H]4Oc5cc(O)cc(O)c5C(=O)[C@@H]4O)ccc3OC2CO)ccc1O (stereo not given in full)", "unit_tag": "s⁻¹", "Kcat": 6.9}
